# System: Escherichia coli TOP10
# assayText: shrunken log2 fold change of peptide-encoding DNA abundance (4.5 h post-induction vs induction); higher = less antimicrobial activity (less host growth inhibition)
# conditionDetails: time post-induction: 4.5 h; library: site-saturation at positions 5, 18, 19, 20
shrunken log2 fold change reference

constructSequence | assayedTarget | shrunken log2 fold change
RRIRVRPPRLPRPRPRPLRCPRP | Escherichia coli TOP10 | 0.0372
RRIRFRPPRLPRPRPRPGLGPRP | Escherichia coli TOP10 | 0.603
RRIRTRPPRLPRPRPRPCCMPRP | Escherichia coli TOP10 | -0.197
RRIRQRPPRLPRPRPRPFSTPRP | Escherichia coli TOP10 | 0.0344
RRIRARPPRLPRPRPRPIRGPRP | Escherichia coli TOP10 | 0.0372
RRIRNRPPRLPRPRPRPFGMPRP | Escherichia coli TOP10 | 0.0298
RRIRWRPPRLPRPRPRPPCNPRP | Escherichia coli TOP10 | 0.0762
RRIRCRPPRLPRPRPRPRYKPRP | Escherichia coli TOP10 | -0.141

###

# System: Escherichia coli TOP10
# assayText: shrunken log2 fold change of peptide-encoding DNA abundance (4.5 h post-induction vs induction); higher = less antimicrobial activity (less host growth inhibition)
# conditionDetails: time post-induction: 4.5 h; library: site-saturation at positions 5, 18, 19, 20
reportedEndpoint: shrunken log2 fold change

constructSequence | assayedTarget | valueReported
RRIRERPPRLPRPRPRPPGEPRP | Escherichia coli TOP10 | 0.439
RRIRARPPRLPRPRPRPCGNPRP | Escherichia coli TOP10 | 0.0115
RRIRPRPPRLPRPRPRPSPFPRP | Escherichia coli TOP10 | -0.0752
RRIRQRPPRLPRPRPRPQHFPRP | Escherichia coli TOP10 | 0.14
RRIRVRPPRLPRPRPRPLLSPRP | Escherichia coli TOP10 | -0.08
RRIRHRPPRLPRPRPRPGIVPRP | Escherichia coli TOP10 | -0.286
RRIRRRPPRLPRPRPRPHMFPRP | Escherichia coli TOP10 | 0.119
RRIRERPPRLPRPRPRPLEWPRP | Escherichia coli TOP10 | -0.0018
RRIRARPPRLPRPRPRPNPNPRP | Escherichia coli TOP10 | 0.187
RRIRVRPPRLPRPRPRPTLYPRP | Escherichia coli TOP10 | -0.155
RRIRLRPPRLPRPRPRPSTRPRP | Escherichia coli TOP10 | 0.174
RRIRNRPPRLPRPRPRPRWKPRP | Escherichia coli TOP10 | -0.109
RRIRGRPPRLPRPRPRPSTMPRP | Escherichia coli TOP10 | 0.21
RRIRHRPPRLPRPRPRPDVCPRP | Escherichia coli TOP10 | -0.258
RRIRWRPPRLPRPRPRPENCPRP | Escherichia coli TOP10 | 0.138

###

# System: Escherichia coli TOP10;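 also: peptides expressed intracellularly from a pBAD plasmid library in pooled LB shake-flask culture, induced with 0.3% L-arabinose, DNA abundance read by NGS, three biological replicates, DESeq2 with apeglm shrinkage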
# assayText: shrunken log2 fold change of peptide-encoding DNA abundance (4.5 h post-induction vs induction); higher = less antimicrobial activity (less host growth inhibition)
# conditionDetails: time post-induction: 4.5 h; library: site-saturation at positions 5, 18, 19, 20
Listing of recorded shrunken log2 fold change by entry.

constructSequence | assayedTarget | shrunken log2 fold change
RRIRLRPPRLPRPRPRPMPNPRP | Escherichia coli TOP10 | -0.0177
RRIRKRPPRLPRPRPRPSWSPRP | Escherichia coli TOP10 | -0.075
RRIRIRPPRLPRPRPRPLHCPRP | Escherichia coli TOP10 | -1.13
RRIRGRPPRLPRPRPRPRMAPRP | Escherichia coli TOP10 | 1.06
RRIRARPPRLPRPRPRPKGNPRP | Escherichia coli TOP10 | 0.0299
RRIRNRPPRLPRPRPRPFPGPRP | Escherichia coli TOP10 | -0.00992
RRIRQRPPRLPRPRPRPDSMPRP | Escherichia coli TOP10 | -0.17
RRIRNRPPRLPRPRPRPKLHPRP | Escherichia coli TOP10 | -0.0882
RRIRHRPPRLPRPRPRPRFLPRP | Escherichia coli TOP10 | 0.0768
RRIRRRPPRLPRPRPRPCDYPRP | Escherichia coli TOP10 | -0.489
RRIRMRPPRLPRPRPRPWHFPRP | Escherichia coli TOP10 | 0.201
RRIRARPPRLPRPRPRPRERPRP | Escherichia coli TOP10 | 0.334
RRIRARPPRLPRPRPRPLEQPRP | Escherichia coli TOP10 | 0.156
RRIRQRPPRLPRPRPRPLCTPRP | Escherichia coli TOP10 | -0.543
RRIRQRPPRLPRPRPRPSTFPRP | Escherichia coli TOP10 | -0.176
RRIRSRPPRLPRPRPRPIRKPRP | Escherichia coli TOP10 | 0.143
RRIRQRPPRLPRPRPRPRVCPRP | Escherichia coli TOP10 | 0.303
RRIRFRPPRLPRPRPRPWSYPRP | Escherichia coli TOP10 | -0.48
RRIRIRPPRLPRPRPRPTDQPRP | Escherichia coli TOP10 | -0.51
RRIRARPPRLPRPRPRPHGMPRP | Escherichia coli TOP10 | 0.238
RRIRERPPRLPRPRPRPTYAPRP | Escherichia coli TOP10 | -0.0017
RRIRRRPPRLPRPRPRPYIGPRP | Escherichia coli TOP10 | -0.399
RRIRKRPPRLPRPRPRPLIEPRP | Escherichia coli TOP10 | 0.105
RRIRCRPPRLPRPRPRPWSHPRP | Escherichia coli TOP10 | -0.0223
RRIRERPPRLPRPRPRPVPMPRP | Escherichia coli TOP10 | -0.041
RRIRARPPRLPRPRPRPFETPRP | Escherichia coli TOP10 | 0.0585
RRIRGRPPRLPRPRPRPPVMPRP | Escherichia coli TOP10 | 0.333
RRIRDRPPRLPRPRPRPQFHPRP | Escherichia coli TOP10 | -0.438
RRIRNRPPRLPRPRPRPQKCPRP | Escherichia coli TOP10 | 0.0748
RRIRIRPPRLPRPRPRPDFAPRP | Escherichia coli TOP10 | 0.222
RRIRNRPPRLPRPRPRPNTYPRP | Escherichia coli TOP10 | -0.971
RRIRRRPPRLPRPRPRPKTLPRP | Escherichia coli TOP10 | 0.146

src = the supplement of paper PMC9112550
